test-summary: cells
Assay type: functional
Active and inactive are the calls of the source. The rule behind the calls is not given here.
Assign IC50 to each entry below.

Reference set (3 entries):
>>> experimental_result("Cc1onc(-c2ccccc2)c1C(=O)ON=C(N)c1ccc([N+](=O)[O-])o1")
"6.29 µM (active)"
>>> experimental_result("CCCCCn1c(=O)c(C(=O)Nc2cnccn2)c(O)c2ccccc21")
"3.04 µM (active)"
>>> experimental_result("O=C(O)c1[nH]c(=O)[nH]c(=O)c1F")
"5.96 µM (active)"

QUERY: Which IC50 is listed for Cc1ccc(NC(=O)COC(=O)C2=COCCO2)c([N+](=O)[O-])c1 ?
RESULT: 3.39 µM (active)

Taken from ChEMBL document CHEMBL1201862.
